# TARGET_ENTITY: T1, Anti-PSMA Fab (SEQ ID NOs: 19, 20)
# T1 construct: also called 006 PSMA Fab
# TEST: phage binding ELISA; clonal phage supernatant on biotinylated PSMA Fab captured on neutravidin plate, wells pre-incubated with PSMA antigen (competitor: PSMA); anti-M13-HRP detection
REPORTED_ENDPOINT: Anti-PSMA Fab signal in the presence of PSMA

{"columns": ["BINDER", "NUMERIC_READOUT"],
 "data": [
  ["FPKWCTPAWMCERS [Phage-1937]", 0.0909],
  ["WENWCTPRWMCEGF [Phage-1945]", 0.173],
  ["GEKWCIPEWMCTTW [Phage-1941]", 0.135],
  ["LEKWCIPTWMCELF [Phage-1943]", 0.175],
  ["MDNWCTPSWMCVGF [Phage-1948]", 0.0794],
  ["WENWCRPEWMCTGL [Phage-1940]", 0.0907],
  ["WINWCTPEWMCMGF [Phage-1947]", 0.24],
  ["DIKLCMPEWMCLGF [Phage-1949]", 0.0792]
]}
